So I've got a bunch of compounds here, and I need their IC50 values.
tested on: HT-29; assay: In vitro cytotoxic effect of compound was measured against HT-29 tumor cells.; assay type: functional, cell-based; details: Homo sapiens
Be sure to follow the number with its unit.

Request: Could you share which IC50 value was measured for Cc1ccc(C(=O)C#Cc2cn(COCCO)c(=O)[nH]c2=O)cc1 ?
Response: 8 µM

Request: Could you share which IC50 value was measured for Cc1cccc(C(=O)C#Cc2cn(COCCO)c(=O)[nH]c2=O)c1 ?
Response: 14 µM

Request: Could you share which IC50 value was measured for Cc1ccccc1C(=O)C#Cc1cn(COCCO)c(=O)[nH]c1=O ?
Response: 25 µM

Request: Could you share which IC50 value was measured for COc1ccc(C(=O)C#Cc2cn(COCCO)c(=O)[nH]c2=O)cc1 ?
Response: 20 µM
